Where these numbers come from: patent US9593097B2

measurement.target: Axl phosphorylation in 293MSR-AxlWT6 cells (Homo sapiens (Human), UniProt P30530)
Sequence (P30530 26-894): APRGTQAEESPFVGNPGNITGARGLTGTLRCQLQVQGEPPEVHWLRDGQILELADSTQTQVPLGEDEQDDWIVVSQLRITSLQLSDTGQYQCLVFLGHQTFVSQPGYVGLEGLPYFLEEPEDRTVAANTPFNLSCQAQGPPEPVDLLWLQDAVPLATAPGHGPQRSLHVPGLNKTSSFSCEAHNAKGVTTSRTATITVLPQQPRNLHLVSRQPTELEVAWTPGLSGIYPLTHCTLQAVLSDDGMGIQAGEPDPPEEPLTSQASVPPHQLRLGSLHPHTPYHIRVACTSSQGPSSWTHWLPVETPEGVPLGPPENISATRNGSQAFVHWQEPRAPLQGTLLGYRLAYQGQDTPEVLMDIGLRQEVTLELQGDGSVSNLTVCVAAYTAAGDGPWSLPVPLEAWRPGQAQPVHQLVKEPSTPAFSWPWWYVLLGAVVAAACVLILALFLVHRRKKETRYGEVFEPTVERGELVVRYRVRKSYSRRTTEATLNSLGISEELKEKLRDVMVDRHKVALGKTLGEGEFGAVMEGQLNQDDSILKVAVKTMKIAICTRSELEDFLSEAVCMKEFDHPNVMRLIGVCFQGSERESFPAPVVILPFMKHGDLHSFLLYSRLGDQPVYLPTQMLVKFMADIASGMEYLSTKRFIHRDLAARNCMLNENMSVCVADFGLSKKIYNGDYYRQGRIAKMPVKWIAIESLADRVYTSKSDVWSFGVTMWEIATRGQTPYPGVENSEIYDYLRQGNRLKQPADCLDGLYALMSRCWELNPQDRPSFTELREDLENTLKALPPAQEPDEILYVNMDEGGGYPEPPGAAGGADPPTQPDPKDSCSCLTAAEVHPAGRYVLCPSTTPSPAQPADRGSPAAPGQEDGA
assay.overview: Cellular Axl phosphorylation ELISA assay (Gas6-stimulated 293MSR-AxlWT6 cells)
Type: cell-based
assay.conditions: Table 4A, read-out: CELL AXL IC50
pIC50: −log10 of the molar value.
Below is a list of entries, each paired with its recorded pIC50 value.
parameter.measured: pIC50

{"columns": ["molecule", "parameter.measured", "measured.result"],
 "data": [
  ["CCNC(=O)c1cc(N2CCC(COc3cc(C#N)cnc3N)CC2)nc(O[C@H](C)COC)n1 [Example 21]", "pIC50", 7.43],
  ["N#C[C@@H]1C[C@@H]1COc1nc(C(=O)NC23CC(C2)C3)nc(N2CCC(COc3cncnc3N)CC2)n1 [Example 66]", "pIC50", 7.21],
  ["COC[C@@H](C)Oc1nc(C(=O)NC2CCC2)nc(N2CCC(c3ccc(N)c(C(N)=O)n3)CC2)n1 [Example 40]", "pIC50", 8.24],
  ["CN(C)CCOc1ccc(C(N)=O)nc1C1CCN(c2cc(C(=O)NC3CCC3)nc(OC[C@H]3C[C@H]3C#N)n2)CC1 [Example 18]", "pIC50", 7.19]
]}
